Tested on: 171881-019-R-J1-PDC tumor spheroids, viability
Assay: Anticancer human tumor 171881-019-R-J1-PDC patient-derived invasive breast carcinoma cell line growth inhibition [GQUAD]; active = viability on the fitted dose curve at most 10% of control; inactive = the rest
Conditions: second compound 3.16 µM; first compound 10 µM; spheroids with HUVEC and MSC
Description: DNA G-quadruplex Stabilizer Agents in Combinations in Complex Spheroids A high-throughput screen of multi-cell type tumor spheroids was designed to identify active combinations of DNA G-quadruplex stabilizer agents and targeted small molecules. […] Compounds. […] If the clinical Cmax for an agent had not been determined, the highest concentration tested was 10 microM. […]
Log the outcome using a class from Yes for active, No for inactive

Some entries whose results are on file:
Compound | Class assignment
COc1cccc2c1C(=O)c1c(O)c3c(c(O)c1C2=O)CC(O)(C(=O)CO)CC3OC1CC(N)C(O)C(C)O1 (stereo not given) + Cc1cnc(CNC(=O)c2c(=O)c3ccc(N4CCCN(C)CC4)nc3n3c2sc2ccccc23)cn1 | Yes
Nc1ccn(C2OC(CO)C(O)C2(F)F)c(=O)n1 (stereo not given) + CN(C)c1ccc(Nc2c3ccc(NC(=O)CCN4CCCC4)cc3nc3cc(NC(=O)CCN4CCCC4)ccc23)cc1 | Yes
O=C(c1cc(Cc2n[nH]c(=O)c3ccccc23)ccc1F)N1CCN(C(=O)C2CC2)CC1 + CN(C)c1ccc(Nc2c3ccc(NC(=O)CCN4CCCC4)cc3nc3cc(NC(=O)CCN4CCCC4)ccc23)cc1 | Yes
CC(C)n1c(=O)n(C)c2cnc3cc(F)c(-c4ccc(OCCCN5CCCCC5)nc4)cc3c21 + Cc1[nH]c2ccc(F)cc2c1-c1nc2c3cccnc3c3ncccc3c2[nH]1 | No

Could you now look at the following compound, please?
Could you please tell me the result logged for O=c1[nH]cc(F)c(=O)[nH]1 + Cc1cnc(CNC(=O)c2c(=O)c3ccc(N4CCCN(C)CC4)nc3n3c2sc2ccccc23)cn1 in this assay?
No

====

Tested on: 171881-019-R-J1-PDC tumor spheroids, viability
Experiment: Anticancer human tumor 171881-019-R-J1-PDC cell line growth inhibition [GQUAD];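 also: spheroids exposed to compounds for 7 days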
Settings: second compound 0.316 µM; first compound 0.1 µM; hits give low values; spheroids with HUVEC and MSC
From the text: DNA G-quadruplex Stabilizer Agents in Combinations in Complex Spheroids A high-throughput screen of multi-cell type tumor spheroids was designed to identify active combinations of DNA G-quadruplex stabilizer agents and targeted small molecules. […] Compounds. […] If the clinical Cmax for an agent had not been determined, the highest concentration tested was 10 microM. […]
Classify: TRUE when viability, T/C is strictly less than 60%; FALSE when viability, T/C is not.

Some entries whose results are on file:
Compound | Class assignment
O=C(c1cc(Cc2n[nH]c(=O)c3ccccc23)ccc1F)N1CCN(C(=O)C2CC2)CC1 + Cc1cnc(CNC(=O)c2c(=O)c3ccc(N4CCCN(C)CC4)nc3n3c2sc2ccccc23)cn1 | FALSE
CC1COCCN1c1cc(C2(O)CC3CCC(C2)O3)c2cnn(-c3ccn[nH]3)c2n1 (stereo not given) + Cc1[nH]c2ccc(F)cc2c1-c1nc2c3cccnc3c3ncccc3c2[nH]1 | TRUE
COc1cc(C2c3cc4c(cc3C(OC3OC5COC(C)OC5C(O)C3O)C3COC(=O)C23)OCO4)cc(OC)c1O (stereo not given) + CN(C)c1ccc(Nc2c3ccc(NC(=O)CCN4CCCC4)cc3nc3cc(NC(=O)CCN4CCCC4)ccc23)cc1 | FALSE
CC(=O)O[C@H]1C(=O)[C@@]2(C)[C@H]([C@H](OC(=O)c3ccccc3)[C@]3(O)C[C@H](OC(=O)[C@H](O)[C@@H](NC(=O)c4ccccc4)c4ccccc4)C(C)=C1C3(C)C)[C@]1(OC(C)=O)CO[C@@H]1C[C@@H]2O + Cc1cnc(CNC(=O)c2c(=O)c3ccc(N4CCCN(C)CC4)nc3n3c2sc2ccccc23)cn1 | TRUE
CC1COCCN1c1cc(-c2ccnn2C)c2ccnc(-c3ccn[nH]3)c2n1 (stereo not given) + Cc1cnc(CNC(=O)c2c(=O)c3ccc(N4CCCN(C)CC4)nc3n3c2sc2ccccc23)cn1 | TRUE
CC(C)(O)C1CCC(Nc2ccc3ncc(-c4cccc(C(F)(F)F)c4)n3n2)CC1 (stereo not given) + CN(C)c1ccc(Nc2c3ccc(NC(=O)CCN4CCCC4)cc3nc3cc(NC(=O)CCN4CCCC4)ccc23)cc1 | TRUE

Could you now look at the following compound, please?
Hello, I'm reviewing records and need to know if viability, T/C of COc1ccc([C@@H](O)c2cc(-c3ncnc4cc(N5CCOCC5)ccc34)c(F)cc2Cl)nn1 + Cc1cnc(CNC(=O)c2c(=O)c3ccc(N4CCCN(C)CC4)nc3n3c2sc2ccccc23)cn1 is below 60%. Could you check?
TRUE
